Target: DOR (DOR-CHO membrane protein) (Homo sapiens, UniProt P41143)
Sequence (P41143 whole entry): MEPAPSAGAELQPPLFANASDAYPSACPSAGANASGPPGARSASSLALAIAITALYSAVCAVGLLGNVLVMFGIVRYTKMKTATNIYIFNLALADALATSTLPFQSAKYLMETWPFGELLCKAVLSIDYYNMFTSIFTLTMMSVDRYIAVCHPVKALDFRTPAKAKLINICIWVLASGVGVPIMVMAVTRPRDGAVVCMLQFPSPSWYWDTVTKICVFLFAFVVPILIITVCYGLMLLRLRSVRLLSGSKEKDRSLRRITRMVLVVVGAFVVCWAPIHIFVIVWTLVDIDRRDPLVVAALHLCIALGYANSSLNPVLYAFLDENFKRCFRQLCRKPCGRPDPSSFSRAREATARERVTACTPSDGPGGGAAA
Experiment: DOR [35S]-GTPγS functional assay
measureName: EC50 (nM)

> print(dat)
                               linenotation  measurename  unitofmeasure  recordedvalue
1  O=C(N[C@@H]1CC[C@@]2(O)[C@H]3Cc4ccc(O)c5c4[C@@]2(CCN3CC2CC2)[C@H]1O5)c1cnc[nH]1         EC50             nM           19.1

// provenance: paper PMC10546485
